These entries and their values trace back to paper PMC5618429.

Reported viability at 48 h is given for each of the following molecules.
# procedure summary: Cell viability assay (MTT)
# Format: cell-based
# measurement conditions: human, MDA-MB-231 breast cancer cells; MDA-MB-231, 48 h, all concentrations tested (32 µM to 320 pM)
# Protocol: MDA-MB-231 cells were seeded in 96-well plates (10,000 cells/well). After 24 h of incubation, the cells were treated with different concentrations of kempopeptins B or C (2 or 3) or the solvent control (DMSO). Following 48 h of incubation, cell viability was measured using 3-(4,5-dimethylthiazol-2-yl)-2,5-diphenyltetrazolium bromide according to the manufacturer's instructions (Promega, Madison, WI, USA). Effect of kempopeptins on the viability of MDA-MB-231 cells Kempopeptin C Kempopeptin B […]

molecule	viability at 48 h
CCCC(=O)NC(C(=O)NC1C(=O)NC(CCCCN)C(=O)NC2CCC(O)N(C2=O)C(C(C)CC)C(=O)N(C)C(Cc2ccc(OC)c(Cl)c2)C(=O)NC(C(C)C)C(=O)OC1C)C(C)C (centres unmarked) [Kempopeptin C, kempopeptin C]	> 90%
CCCC(=O)N[C@H](C(=O)N[C@@H]1C(=O)N[C@@H](CCCCN)C(=O)N[C@H]2CC[C@@H](O)N(C2=O)[C@@H]([C@@H](C)CC)C(=O)N(C)[C@@H](Cc2ccc(OC)c(Br)c2)C(=O)N[C@@H](C(C)C)C(=O)O[C@@H]1C)C(C)C [Kempopeptin B, kempopeptin B]	> 90%
